Each entry below lists one item and its recorded PBM binding z-score value.
System: LXRa homodimer (NR concentration 270 nM)
Assay: PBM binding z-score (relative to random genomic background probes); higher = stronger binding; sequences stand for … in GC…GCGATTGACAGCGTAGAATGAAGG

// worked examples, PBM binding z-score included
* GCTCCTAGGTCAGGTTGGTCAGCTAACGGGTACG | 0.0623
* GCTTGTAGATCAAGGTTAAGGAAGACTAAGCTAA | -0.182
* CGAACTAGGTCATCCAGGACGGTGAATACATTGA | 0.0785

Exam item: Which measured PBM binding z-score value corresponds to GCAAGTTGGTCAGTAAAAGGTCACACACCGGTCG ?
Marked response: 4.58

Exam item: Endpoint output: PBM binding z-score of CCTATTAGTTGACCATAAGGGCAGCCGAAGCTCG . Value?
Marked response: 0.036

Exam item: # query: PBM binding z-score of entry CGAACTAGGGCAAGGACAGTGAATCTCCGCACGC
Marked response: 0.0437

Exam item: Requested read-out: PBM binding z-score. Entry: ATCTCTAGGCAACAAGTTCAGTGAAAGAGAGGAC
Marked response: -0.0655

Exam item: Request the reported PBM binding z-score associated with AGAATGAGGTTACCCAAGATCAGGGAAACGCTTG
Marked response: -0.558

###

Tested on: RARg homodimer (NR concentration 270 nM)
Assay: PBM binding z-score (relative to random genomic background probes); higher = stronger binding; sequences stand for … in GC…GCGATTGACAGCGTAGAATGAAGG
Recorded PBM binding z-score, one value per entry.
API doc: respond with a numeric literal and nothing else, no unit.

* ATCTCTCGGTAACAAGTTCAGTGAAAGAGAGGAC | 1.2
* GCTCGGAGGACAAGGTGAGAGCTTTGTCCGTAGA | 0.805
* ATCTCTAGGTTACAAGTTCAGTGAAAGAGAGGAC | 2.37
* ATCAAAAGGTCGACGAGGTGAGTATACACCGTTT | 4.08
* ATATGTAGGGTACATCCGGGTCATTCAGGCTATG | 1.86

Exam item: So what's the measured PBM binding z-score for this one? CCTAGCAGGCAAGGGTCACTCAAGCATTTCGCTT
Marked response: 3.63

Exam item: Suppose we examine the sequence TCATATAGGTAAACAGGTGAAACTCCGTAAGTTA ; what PBM binding z-score value has been reported?
Marked response: 0.575

Exam item: If you can, please state the reported PBM binding z-score value of TCTTGTAGATCAAGCAGGTTAACAAAGCCTGAGT .
Marked response: 0.0907

Exam item: I'd like to know its PBM binding z-score. The sequence in question is TCTCGGAGGACACGAAAGATCAGAGCTCGACATC
Marked response: 1.18

Exam item: # input sequence: CCTAGCAGGCCAGGCTCACTCAAGCATTTCGCTT ; wanted: its PBM binding z-score
Marked response: -0.705

Exam item: // PBM binding z-score lookup, key: CCTAGCAGGCCAATCTGCGTCACTCAAGGCTTGA
Marked response: -0.155

Exam item: Param item = CCTCGGAGGACAGAAGGTCAGAGCTGTCCGCTTT ; retrieve measured PBM binding z-score.
Marked response: 2.55

Exam item: Bench note: what PBM binding z-score did CCTTACGGGTCACTCCAGGTTTTAGCATCGGAGT show?
Marked response: 4.02

###

Tested on: PPARa:RXRa (NR concentration 270 nM, RXRa partner concentration 90 nM)
Test: PBM binding z-score (relative to random genomic background probes); higher = stronger binding; sequences stand for … in GC…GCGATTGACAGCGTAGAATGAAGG
Note to self: values exactly at 2 are Criterion met. So PBM binding z-score at or above 2 is Criterion met, below is Criterion not met.

- CAGCCTAGGTCAGGGCCAGTACAGGAGGAACGTT: Criterion met
- CCGAGTAGGTTATGGGGCATCCAGGCAACGGTGA: Criterion met
- CAAACTAGGTCACGAAGGGTCAAAGTCGAATGAC: Criterion met
- CCTACTGGGCCAAGGACATTGATCAGTCAAAGCA: Criterion not met
- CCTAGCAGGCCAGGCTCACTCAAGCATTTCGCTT: Criterion not met

Exam item: Has CCGAGTAGGTTATGGGGCATTCATGCAACGGTGA a recorded PBM binding z-score greater than or equal to 2?
Marked response: Criterion met

Exam item: Please tell me: is the sequence AATTACGGGTCAACGAGGTTATAGCACGCGTATA at or over 2 in terms of PBM binding z-score?
Marked response: Criterion met

Exam item: Reported PBM binding z-score at or above 2? CGGACTAGGTCAGAACAGGACAGTGAAGGATGAT
Marked response: Criterion met

###

System: RXRa DBDmut IVT, anti-RXR (DBD mutation: RXRa K156A/R161A, NR concentration 90 nM)
Assay: PBM binding z-score (relative to random genomic background probes); higher = stronger binding; sequences stand for … in GC…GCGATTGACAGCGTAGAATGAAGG
Below is a list of entries, each paired with its recorded PBM binding z-score value.
Number, no unit, nothing else.

// solved cases for PBM binding z-score follow
- GCTGCTAGGTCAACTGATGGTCAGCCAAAGCTCG: 1.7
- GGAACGAAGGCAAAGTTGATAGCATCTGTCGACG: -0.157
- ACTAGCAGGCCAAGTATGGGTCACTCAAACAAAG: -0.279
- CGAACTAGGCCAGAACAGGACAGTGAAGGATGAT: 0.019
- TCTTGTAGATCAAAGTTTAAGAAAGCCGAAGCCT: 1.22
- CCTTACGGGTCACTGACAGGTTGTAGCATTTGGA: 2.01
- TGTTAAAGTTCAAAGGTAACGTAAGTATCCACAC: 4.41
- CCTTACGGGTCACTTCAGGTTATAGCATCGGAGT: 1.67

Exam item: For GCGACTGGGGCAAAGCAGGTTACTATAAGGTTGG , what is its reported PBM binding z-score?
Marked response: 0.143

Exam item: Fill blank: measured PBM binding z-score of the sequence CTGGAAAGGTCGTGCTCAGGTGAGTATACCAAAC is ____.
Marked response: 1.91

Exam item: Returns the measured PBM binding z-score for the input sequence. Input: CCTACTGGGCCAAGAAGGTCATTGATGCCGATAA
Marked response: 0.188

Exam item: Dear colleague, I am looking for the recorded PBM binding z-score of the following sequence: ATATGTAGGTTAGCTGGGGTCATCCAGACTAGGC
Marked response: 1.31

###

Test system: PPARg:RXRa (NR concentration 180 nM, RXRa partner concentration 90 nM)
Test: PBM binding z-score (relative to random genomic background probes); higher = stronger binding; sequences stand for … in GC…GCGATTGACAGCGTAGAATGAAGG
Measured PBM binding z-score accompanies every entry in the list below.
# print the numeric value only

Use these answered entries as a reference point.
- TCGAGTTGGTCAAAGGTCACACACTCGAAATGCG: 10.4
- GCTAGCAGGCCATTTGGGTCACTCAATGACGGGC: 0.697
- TCGAGTGGGTTAGGGGCATTCAGAATGGCGTCGA: 0.402
- ATCGAAAGGTCGAGGTGGGTATAGAGAAAGGGAA: 2.59
- AACACAGGGTCACTAGGCCAGAGTAGGTACGAAT: 7.72
- TCTCGGAGGACACGAAGGTCAGGGCTTTCCAGAG: 0.576
- ACTAGTAGGCCAAGTTTGGGTCACTCAAACAAAG: 2.17
- GATACACGGTCAGCTAGAGGCCAGAGTATGGAAA: 0.351

Here is the next item to consider.
Exam item: What measured PBM binding z-score goes with CCAGACAGGAGAAAGGTAACTCAGTCTGGTACGC ?
Marked response: 0.817

###

Tested on: RARa:RXR (NR concentration 270 nM, RXRa partner concentration 90 nM)
Experiment: PBM binding z-score (relative to random genomic background probes); higher = stronger binding; sequences stand for … in GC…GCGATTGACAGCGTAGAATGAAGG
Kind request: treat 3 as inclusive, so PBM binding z-score at 3 or higher is MET, anything lower is NOT MET.

Look over these answered cases.
- TAGCCTAGGTCATTGGGCCAGTAGAGTACGCATC: NOT MET
- CCTACTGGGCGATCAGGTCATTGATATCAACGTT: NOT MET
- TAGCCTAGGACAGATCGGGCCAGTATACGCTATA: NOT MET
- TTACCAAGGTGAGCTGAGGGCGTTGATCCAACTC: NOT MET
- ATACCAAGGTGATTGTGAGGTCGTTGATACTAAC: NOT MET

Exam item: Dear colleague, could you confirm whether TCATATAGGTAGAGGTGAAAGTCGAACGATATGA has PBM binding z-score at or above 3?
Marked response: NOT MET

Exam item: Textbook exercise: given the entry CCATACGGGTCACTGACAGGTTATAGCATTTGGA , state whether its PBM binding z-score is greater than or equal to 3.
Marked response: MET

Exam item: Is PBM binding z-score at least 3? Consider TCGAGTAGGTTATGGGCATTCAGAATGGCGTCGA
Marked response: NOT MET

Exam item: Is reported PBM binding z-score greater than or equal to 3 here: CAAACTAGGTCAGAGAGGTCAAAGTCCGTGCGTA
Marked response: MET

Exam item: Quick check: does AGAATGAGGTTACCAAAGATCGGGGAAACGCTTG have PBM binding z-score greater than or equal to 3?
Marked response: NOT MET

Exam item: Would you say ATCTCTAGGTAACCAAGTTCAGCGAATGCCGAAC shows PBM binding z-score at minimum 3?
Marked response: NOT MET

Exam item: Is the recorded value of PBM binding z-score equal to or greater than 3 for this sequence? AGTCAAAGTCCACTAGGTAACGTAAGATTCAGCT
Marked response: NOT MET

Data origin: the supplement of paper PMC6555819
